// provenance: BindingDB's records for doi:10.1021/jm00037a004

- target: Sodium-dependent dopamine transporter (Rattus norvegicus)
- Sequence (P23977 whole entry): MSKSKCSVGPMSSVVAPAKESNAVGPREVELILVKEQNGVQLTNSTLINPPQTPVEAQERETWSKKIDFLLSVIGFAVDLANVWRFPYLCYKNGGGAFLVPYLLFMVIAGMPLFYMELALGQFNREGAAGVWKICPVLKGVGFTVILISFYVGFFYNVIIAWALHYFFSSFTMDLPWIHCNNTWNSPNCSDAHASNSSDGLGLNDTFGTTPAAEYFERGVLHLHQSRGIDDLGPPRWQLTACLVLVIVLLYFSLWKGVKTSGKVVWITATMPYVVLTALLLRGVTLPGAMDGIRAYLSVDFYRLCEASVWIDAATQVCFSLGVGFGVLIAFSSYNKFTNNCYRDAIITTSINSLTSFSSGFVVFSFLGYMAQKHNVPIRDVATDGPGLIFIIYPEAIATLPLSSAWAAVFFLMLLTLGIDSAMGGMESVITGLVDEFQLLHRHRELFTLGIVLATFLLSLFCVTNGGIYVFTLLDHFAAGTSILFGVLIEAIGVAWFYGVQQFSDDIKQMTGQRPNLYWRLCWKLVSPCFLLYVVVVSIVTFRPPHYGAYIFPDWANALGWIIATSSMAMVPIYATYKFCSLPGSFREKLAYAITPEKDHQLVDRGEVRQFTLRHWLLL
pKi: −log10 of the molar value.
readout.label: pKi

Tell me its pKi given CC(C)OC(=O)[C@H]1C(c2cc[c]([Sn]([CH3])([CH3])[CH3])cc2)C[C@H]2CCC1N2CCCF (some centres undefined) as the entry. < 5.00

Return value of pKi for input CC(C)OC(=O)[C@H]1C(c2cc[c]([Sn]([CH3])([CH3])[CH3])cc2)C[C@H]2CCC1N2CCF (some centres undefined) , no commentary. 5.94

Give the reported value of pKi for this record: COC(=O)[C@H]1C(c2cc[c]([Sn]([CH3])([CH3])[CH3])cc2)C[C@H]2CCC1N2CCF (some centres undefined) < 5.00

Entry COC(=O)[C@H]1C(c2cc[c]([Sn]([CH3])([CH3])[CH3])cc2)C[C@H]2CCC1N2CCCF (some centres undefined) needs its pKi filled in; supply it. < 5.00
